Exercise: for every item that follows, state its recorded EC50.
# assay target: Estrogen receptor (Rattus norvegicus, UniProt P06211+Q62986)
# assay text: In vitro displacement of [3H]estradiol from estrogen receptor of rat uterine cystol
# Format: protein assay
Give bare numbers, in nM.

// solved cases for EC50 follow
Qu. Entry under review: Oc1ccc(C(=Cc2ccc(I)cc2)c2ccc(O)cc2)cc1 . Reported EC50?
Ans. 3.3

Qu. Try Oc1ccc(C(=Cc2ccc(Br)cc2)c2ccc(O)cc2)cc1 next.
Ans. 10.4

Qu. One more compound: Oc1ccc(C(=Cc2ccccc2)c2ccc(O)cc2)cc1
Ans. 3.2

Qu. Please give the result for Oc1ccc(C(=Cc2ccc(F)cc2)c2ccc(O)cc2)cc1 too.
Ans. 2.9

***
Qu. # lookup: EC50 of Oc1ccc(C(=C(Cl)c2ccccc2)c2ccc(O)cc2)cc1
Ans. 4.5
